Reference source: PubChem BioAssay AID1210

Assignment: determine reported inhibition for the given molecules.
biological target: Estrogen receptor beta (Homo sapiens) (UniProt Q92731); assay: displacement of fluorescent estrogen from ERbeta – cell-based, Cos7 ERbeta-GFP, flow cytometry, primary screen (AID 1210); details: fluorescent estrogen binding, ligand binding inhibition, at 0.1 µM, stronger effect = higher value;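 note: 0% = DMSO vehicle wells and 100% = complete loss of labeled estradiol signal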
Sequence (Q92731 whole entry, looked up): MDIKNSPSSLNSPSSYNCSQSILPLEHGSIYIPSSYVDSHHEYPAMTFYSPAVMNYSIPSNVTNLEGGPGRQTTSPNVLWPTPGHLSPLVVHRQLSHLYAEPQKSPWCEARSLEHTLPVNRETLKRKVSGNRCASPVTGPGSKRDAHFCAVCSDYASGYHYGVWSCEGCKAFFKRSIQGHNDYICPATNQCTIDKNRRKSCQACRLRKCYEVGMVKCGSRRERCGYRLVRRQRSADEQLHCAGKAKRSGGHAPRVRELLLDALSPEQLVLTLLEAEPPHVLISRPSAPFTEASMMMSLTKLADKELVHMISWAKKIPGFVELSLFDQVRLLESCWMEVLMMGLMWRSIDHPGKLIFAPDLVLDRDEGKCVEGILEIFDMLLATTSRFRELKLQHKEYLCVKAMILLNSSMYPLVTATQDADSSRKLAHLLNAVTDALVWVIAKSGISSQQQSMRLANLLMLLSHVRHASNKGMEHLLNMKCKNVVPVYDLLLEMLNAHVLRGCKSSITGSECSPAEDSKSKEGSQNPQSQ
Give bare numbers, in %.

Past entries and their recorded results:
{"molecule": "CSc1ccccc1NC(=O)c1noc2c1CCC2", "inhibition [%]": 12}
{"molecule": "Cc1nnc(SCC(=O)NC(=O)NCc2ccco2)n1Cc1ccccc1", "inhibition [%]": 53}
{"molecule": "Oc1ccccc1C1=Nc2ccccc2N=C(c2cccs2)C1", "inhibition [%]": 17}
{"molecule": "CCN(CC)CCCNC(=O)c1nn(-c2ccccc2OC)c(=O)c2ccccc12", "inhibition [%]": 19}
{"molecule": "O=c1oc2ccccc2cc1-c1ccc(O)cc1", "inhibition [%]": 3}

Go through the items and report each one's inhibition.
1. Cc1ccc(OCCN2CCN(CC(O)Cn3c4ccccc4c4ccccc43)CC2)cc1 (centres undefined)
2. Cc1sc2ncnc(SCC(=O)NC(=O)NCc3ccco3)c2c1C
3. COc1cc(C2C(C#N)=C(N)Oc3cc(C)oc(=O)c32)cc2c1OCO2 (centres undefined)
4. CCOc1[nH]c(/N=C/c2ccco2)c(C#N)c1C#N

Reply text:
[31, 14, 46, 15]

----------
target: Estrogen receptor beta (Homo sapiens); experiment: displacement of fluorescent estrogen from ERbeta – cell-based, Cos7 ERbeta-GFP, flow cytometry, primary screen (AID 1210); settings: fluorescent estrogen binding, at 10 µM, stronger effect = higher value;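 note: 0% = DMSO vehicle wells and 100% = complete loss of labeled estradiol signal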
Assignment: determine reported inhibition for the given compounds.
One number for each entry, in %.

{"compound": "N=c1c(C(=O)NCc2ccc(F)cc2)cc2c(=O)n3ccccc3nc2n1Cc1cccnc1", "u": "%", "inhibition": 30}
{"compound": "Nc1nc2c(s1)CCc1c-2cnn1-c1ccccc1", "u": "%", "inhibition": 50}

Go through the items and report each one's inhibition.
1. O=C(CSc1nnc(-c2ccc(OC(F)F)cc2)o1)NC(=O)NCc1ccco1
2. CC(=O)Nc1nonc1-c1nc2ccccc2n1N(C(C)=O)C(C)=O

Reply text:
[39, 35]

----------
Assignment: determine reported inhibition for the given molecules.
target: Estrogen receptor beta (Homo sapiens) (UniProt Q92731); experiment: displacement of fluorescent estrogen from ERbeta – cell-based, Cos7 ERbeta-GFP, flow cytometry, primary screen (AID 1210); settings: fluorescent estrogen binding, at 10 µM, stronger effect = higher value;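 note: 0% = DMSO vehicle wells and 100% = complete loss of labeled estradiol signal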
Give bare numbers, in %.

{"molecule": "Cc1cccc(N2CSC3=C(C#N)C(c4ccc(C)o4)CC(=O)N3C2)c1 (configuration not stated)", "value-measured": 35}
{"molecule": "CCOC(=O)c1c(/N=C/c2ccc(O)cc2O)sc2c1CCC2", "value-measured": 33}
{"molecule": "O=C(Nc1ccc2c(c1)nc1n2CCSC1)c1ccco1", "value-measured": 57}
{"molecule": "CN(C)CC(=O)N1c2ccccc2CCc2ccc(NC(=O)c3ccc(N)cc3)cc21", "value-measured": 39}

Go through the items and report each one's inhibition.
1. Cc1noc(C)c1CSCC(=O)OCC(=O)Nc1sccc1C#N
2. Cc1occc1C(=O)NCc1cccc(CNC(=O)c2ccoc2C)c1
3. CCOc1ccc(C2C3=C(Nc4nc(N)[nH]c(=O)c42)c2ccccc2C3=O)cc1 (configuration not stated)

Reply text:
5
2
22
